- assayed-system: serotoninergic 5-HT6 receptor (Homo sapiens)
- Sequence (P50406 whole entry): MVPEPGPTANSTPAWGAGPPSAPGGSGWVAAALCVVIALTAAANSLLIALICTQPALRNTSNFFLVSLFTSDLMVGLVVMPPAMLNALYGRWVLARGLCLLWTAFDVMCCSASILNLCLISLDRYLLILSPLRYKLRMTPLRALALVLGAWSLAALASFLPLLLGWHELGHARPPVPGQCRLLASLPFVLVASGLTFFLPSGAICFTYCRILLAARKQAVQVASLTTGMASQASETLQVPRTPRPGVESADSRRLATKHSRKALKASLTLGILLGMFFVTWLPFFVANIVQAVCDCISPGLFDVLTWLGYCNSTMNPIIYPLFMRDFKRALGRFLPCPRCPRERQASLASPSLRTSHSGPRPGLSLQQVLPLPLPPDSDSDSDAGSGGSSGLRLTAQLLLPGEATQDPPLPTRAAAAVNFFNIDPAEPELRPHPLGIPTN
- experimental-protocol: Binding assay 5-HT6 (h), [3H]LSD, CHO cells
- Parameters: expressed in transfected cells; host or cells: CHO cells
- run-parameters: read-out: 5-HT6
quantity-measured: inhibition at 1 µM (%)
Could you give me the number in %? Just the number is fine.

Sample records with inhibition at 1 µM:
Cn1ccc2cc(S(=O)(=O)NCCCN3CCC(c4noc5cc(F)ccc45)CC3)ccc21 [Compound 344] : 91
O=C1COc2c(cccc2N2CCN(CCCCNS(=O)(=O)c3cccc(F)c3)CC2)N1 [Compound 211] : 32
O=S(=O)(NCCCCN1CCN(c2cccc3[nH]ccc23)CC1)c1ccc2ccccc2c1 [Compound 26] : 51

Using known records, supply inhibition at 1 µM for O=S(=O)(NCCCN1CCN(c2cccc3c2OCCO3)CC1)c1cccc2ccccc12 [Compound 405] 53

Kindly indicate its recorded inhibition at 1 µM. Item: O=c1[nH]c2cccc(N3CCN(CCCNS(=O)(=O)c4ccc5ccccc5c4)CC3)c2[nH]1 [Compound 424] 69

Return the recorded inhibition at 1 µM value; entry: O=S(=O)(NCCCN1CCC(c2noc3cc(F)ccc23)CC1)c1cnc2ccccn12 [Compound 356] 78

Determine from records and report inhibition at 1 µM for Cc1c(S(=O)(=O)NCCCCN2CCC(c3noc4cc(F)ccc34)CC2)sc2ccc(F)cc12 [Compound 101] 98

Tell us which inhibition at 1 µM value is on record for O=S(=O)(NCCN1CCN(c2nsc3ccccc23)CC1)c1ccc2ccccc2c1 [Compound 10] 37

Determine from records and report inhibition at 1 µM for COc1cccc(S(=O)(=O)NCCCCN2CCN(c3cccc4c3OCCO4)CC2)c1 [Compound 394] 18
